tested on: streptavidin-biotin alkaline phosphatase system; experiment: Sensitivity of detection of probes biotinylated with various linker lengths, spotted on nitrocellulose; details: after 30 minutes' incubation in NBT/BCIP dye mixture
REPORTED PROPERTY: spot of labeled probe visible (sensitivity) (pg)
The answer is to be given in pg; state only the numeric part.

MOLECULE: O=C(CCCC[C@@H]1SC[C@@H]2NC(=O)N[C@@H]21)NCCCCCCNc1ncnc2c1ncn2[C@H]1C[C@H](O)[C@@H](COP(=O)(O)OP(=O)(O)OP(=O)(O)O)O1 [Biotin-7-dATP]
UNIT TEXT: pg
RESULT NUMBER: 2

MOLECULE: O=C(CCCC[C@@H]1SC[C@@H]2NC(=O)N[C@@H]21)NCCCCCC(=O)NCCNc1ncnc2c1ncn2[C@H]1C[C@H](O)[C@@H](COP(=O)(O)OP(=O)(O)OP(=O)(O)O)O1 [Biotin-10-dATP]
UNIT TEXT: pg
RESULT NUMBER: 2

MOLECULE: O=C(CCCCCNC(=O)CCCC[C@@H]1SC[C@@H]2NC(=O)N[C@@H]21)NCCCCCCNc1ncnc2c1ncn2[C@H]1C[C@H](O)[C@@H](COP(=O)(O)OP(=O)(O)OP(=O)(O)O)O1 [Biotin-14-dATP]
UNIT TEXT: pg
RESULT NUMBER: 2

MOLECULE: O=C(CCCC[C@@H]1SC[C@@H]2NC(=O)N[C@@H]21)NCCNc1ncnc2c1ncn2[C@H]1C[C@H](O)[C@@H](COP(=O)(O)OP(=O)(O)OP(=O)(O)O)O1 [Biotin-3-dATP]
UNIT TEXT: pg
RESULT NUMBER: 5

Shift focus to the following entry.
Task: Entry O=C(CCCC[C@@H]1SC[C@@H]2NC(=O)N[C@@H]21)NCCCCCC(=O)NCCNc1ccn([C@H]2C[C@H](O)[C@@H](COP(=O)(O)OP(=O)(O)OP(=O)(O)O)O2)c(=O)n1 [Biotin-10-dCTP] has what spot of labeled probe visible (sensitivity)?
Output: 2
